# CpomPBP2 (Cydia pomonella): Kd values follow
# Sequence (I3ZNT9 26-169 limits assumed): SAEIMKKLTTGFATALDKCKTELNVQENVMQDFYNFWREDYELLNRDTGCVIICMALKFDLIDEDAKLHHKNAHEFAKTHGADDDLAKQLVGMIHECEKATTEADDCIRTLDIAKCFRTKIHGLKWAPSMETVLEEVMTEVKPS
MEASURE: Kd (µM)

- COMPOUND: "CCCCCCOC(=O)CCCCC [Hexyl Hexanoate]"
  MEASURE: "Kd"
  QUANTITY UNIT: "µM"
  RECORDED NUMBER: 16.2

[I] CCCCCCC/C=C/C=C/C=O
[II] CCC=CCCOC(=O)C(C)CC (stereo not drawn) [Z-3-Hexenyl-2-Methylbutanoate]
Form: Entry with minimum Kd (choose one): I / II Reply with the label of the item you choose.
I

# credit: paper PMC4772377
